# Species: Rattus norvegicus
# assay_comment: Open TG-GATES - Regimen: Daily Repeat
# Type: toxicity, organism-based, Sprague-Dawley
# Parameters: regimen Daily Repeat, gender Male, age 6 weeks
# condition_details: in vivo, po, 100 mg/kg, […], tissue Plasma, route gavage, dose level Low, time 14 day
Hi there, I'd appreciate the recorded PL for every entry that follows.
Numbers only, in mg/dL.

Below are worked cases with known answers.
CCN1CCCC1CNC(=O)c1cc(S(N)(=O)=O)ccc1OC (centres undefined) [SULPIRIDE]
145.5
O=C(N[C@H](CO)[C@H](O)c1ccc([N+](=O)[O-])cc1)C(Cl)Cl
157.4
CC(C)(S)[C@@H](N)C(=O)O
178.2

Next molecule, PL to be filled in.
## Task State its PL for this molecule: O=C(O)c1cccnc1
## Result 144.4

====

Hi there, I'd appreciate the recorded K for every entry that follows.
# Species: Rattus norvegicus
# assay_comment: Open TG-GATES - Regimen: Daily Repeat
# Format: toxicity, organism-based, Sprague-Dawley
# Parameters: regimen Daily Repeat, gender Male, age 6 weeks
# condition_details: in vivo, po, 100 mg/kg, […], tissue Plasma, route gavage, dose level Low, time 7 day
Provide a numeric answer, followed by its unit.

Below are worked cases with known answers.
O=C(N[C@H](CO)[C@H](O)c1ccc([N+](=O)[O-])cc1)C(Cl)Cl
4.2 meq/L
CCN1CCCC1CNC(=O)c1cc(S(N)(=O)=O)ccc1OC (centres undefined) [SULPIRIDE]
4.4 meq/L

List K for every entry below, keeping the order given.
1. CC(C)(S)[C@@H](N)C(=O)O
2. O=C(O)c1cccnc1

## Result
1: 3.9 meq/L; 2: 4.7 meq/L

====

# Species: Rattus norvegicus
# assay_comment: Open TG-GATES - Regimen: Daily Repeat
# Format: toxicity, organism-based, Sprague-Dawley
# Parameters: regimen Daily Repeat, gender Male, age 6 weeks
# condition_details: in vivo, po, 100 mg/kg, […], tissue Blood, route gavage, dose level Low, time 14 day
Hi there, I'd appreciate the recorded Mono for every entry that follows.
Answers are plain numbers, in %.

Below are worked cases with known answers.
O=C(N[C@H](CO)[C@H](O)c1ccc([N+](=O)[O-])cc1)C(Cl)Cl
2.4
O=C(O)c1cccnc1
2.6
CC(C)(S)[C@@H](N)C(=O)O
1.8

Next molecule, Mono to be filled in.
## Task State its Mono for this molecule: CCN1CCCC1CNC(=O)c1cc(S(N)(=O)=O)ccc1OC (centres undefined) [SULPIRIDE]
## Result 3

====

Hi there, I'd appreciate the recorded CRE for every entry that follows.
# Species on record: Rattus norvegicus
# assay_comment: Open TG-GATES - Regimen: Single
# Format: toxicity, organism-based, Sprague-Dawley
# Set-up: regimen Single, gender Male, age 6 weeks
# condition_details: in vivo, po, 0 mg/kg, 3 h, tissue Plasma, route gavage, dose level Control
Answers are plain numbers, in mg/dL.

Below are worked cases with known answers.
O=C(N[C@H](CO)[C@H](O)c1ccc([N+](=O)[O-])cc1)C(Cl)Cl
0.2
CCc1oc2ccccc2c1C(=O)c1cc(I)c(O)c(I)c1
0.5
CCSCC[C@H](N)C(=O)O
0.4
CC(=N)S [THIOACETAMIDE]
0.5

List CRE for every entry below, keeping the order given.
1. Oc1ncnc2[nH]ncc12
2. C[C@]12CCC(=O)C=C1CC[C@@H]1[C@@H]2CC[C@@]2(C)[C@H]1CC[C@]2(C)O

## Result
1: 0.5; 2: 0.2
